Values from ChEMBL document CHEMBL1136062

- Test system: Enterococcus faecium
- ASSAY SUMMARY: Tested in vitro for its antibacterial activity against vancomycin resistant Enterococcus faecium (MB5244)
- Assay type: functional
PARAMETER MEASURED: MIC (mg/L)
Please give a number only; it is taken to be in mg/L.

Recorded results for 2 molecules are shown here.
INSERT INTO results (molecule, parameter_measured, reading) VALUES
  ('CN[C@H](CC(C)C)C(=O)N[C@H]1C(=O)N[C@@H](CC(N)=O)C(=O)N[C@H]2C(=O)N[C@H]3C(=O)N[C@H](C(=O)N[C@H](C(=O)O)c4cc(O)cc(O)c4-c4cc3ccc4O)[C@H](O)c3ccc(c(Cl)c3)Oc3cc2cc(c3OC2OC(C[N+](C)(C)C)C(O)C(O)C2OC2CC(C)(NCc3ccc(OCc4ccc(Cl)c(Cl)c4)cc3)C(O)C(C)O2)Oc2ccc(cc2Cl)[C@H]1O (stereo partly drawn)', 'MIC', 1),
  ('CN[C@H](CC(C)C)C(=O)N[C@H]1C(=O)N[C@@H](CC(N)=O)C(=O)N[C@H]2C(=O)N[C@H]3C(=O)N[C@H](C(=O)N[C@H](C(=O)O)c4cc(O)cc(O)c4-c4cc3ccc4O)[C@H](O)c3ccc(c(Cl)c3)Oc3cc2cc(c3OC2OC(C[N+]34CCN(CC3)CC4)C(O)C(O)C2OC2CC(C)(NCc3ccc(OCc4ccc(Cl)c(Cl)c4)cc3)C(O)C(C)O2)Oc2ccc(cc2Cl)[C@H]1O (stereo partly drawn)', 'MIC', 1);

Continue with the molecule presented below.
So, CN[C@H](CC(C)C)C(=O)N[C@H]1C(=O)N[C@@H](CC(N)=O)C(=O)N[C@H]2C(=O)N[C@H]3C(=O)N[C@H](C(=O)N[C@H](C(=O)O)c4cc(O)cc(O)c4-c4cc3ccc4O)[C@H](O)c3ccc(c(Cl)c3)Oc3cc2cc(c3OC2OC(CN(C)C)C(O)C(O)C2OC2CC(C)(NCc3ccc(OCc4ccc(Cl)c(Cl)c4)cc3)C(O)C(C)O2)Oc2ccc(cc2Cl)[C@H]1O (stereo partly drawn) ? Its MIC was 1

---

- Test system: Enterococcus faecium
- ASSAY SUMMARY: Tested in vitro for its antibacterial activity against vancomycin resistant Enterococcus faecium (CL4931)
- Type: functional
PARAMETER MEASURED: MIC

Recorded results for 2 compounds are shown here.
INSERT INTO results (compound, reading) VALUES
  ('CN[C@H](CC(C)C)C(=O)N[C@H]1C(=O)N[C@@H](CC(N)=O)C(=O)N[C@H]2C(=O)N[C@H]3C(=O)N[C@H](C(=O)N[C@H](C(=O)O)c4cc(O)cc(O)c4-c4cc3ccc4O)[C@H](O)c3ccc(c(Cl)c3)Oc3cc2cc(c3O[C@@H]2O[C@H](CO)[C@@H](O)[C@H](O)[C@H]2O[C@H]2C[C@](C)(N)[C@H](O)[C@H](C)O2)Oc2ccc(cc2Cl)[C@H]1O', '2050 µg/mL'),
  ('CN[C@H](CC(C)C)C(=O)N[C@H]1C(=O)N[C@@H](CC(N)=O)C(=O)N[C@H]2C(=O)N[C@H]3C(=O)N[C@H](C(=O)N[C@H](C(=O)O)c4cc(O)cc(O)c4-c4cc3ccc4O)[C@H](O)c3ccc(c(Cl)c3)Oc3cc2cc(c3OC2OC(C[N+](C)(C)CCN(C)C)C(O)C(O)C2OC2CC(C)(NCc3ccc(OCc4ccc(Cl)c(Cl)c4)cc3)C(O)C(C)O2)Oc2ccc(cc2Cl)[C@H]1O (stereo partly drawn)', '> 64 µg/mL');

So, CN[C@H](CC(C)C)C(=O)N[C@H]1C(=O)N[C@@H](CC(N)=O)C(=O)N[C@H]2C(=O)N[C@H]3C(=O)N[C@H](C(=O)N[C@H](C(=O)O)c4cc(O)cc(O)c4-c4cc3ccc4O)[C@H](O)c3ccc(c(Cl)c3)Oc3cc2cc(c3OC2OC(C[N+](C)(C)CCO)C(O)C(O)C2OC2CC(C)(NCc3ccc(OCc4ccc(Cl)c(Cl)c4)cc3)C(O)C(C)O2)Oc2ccc(cc2Cl)[C@H]1O (stereo partly drawn) ? Its MIC was > 64 µg/mL
